assay: MRP1 drug-resistance reversers in H69AR cells – cell-based, doxorubicin co-treatment, pilot screen (AID 601); conditions: H69AR cells, CellTiter-Glo, 72 h; compound alone cytotoxicity; at 10 µM
ASSAY_ENDPOINT: viability (%)

{"columns": ["COMPOUND", "UNITS", "ENDPOINT_RESULT"],
 "data": [
  ["O=C(c1ccc(CNc2c(N3CCCC3)c(=O)c2=O)cc1)N1CCc2ccccc2C1", "%", 95.3],
  ["CCOC(=O)c1ccccc1NC(=O)c1cccnc1", "%", 96.1],
  ["O=C(c1ccc2snnc2c1)N1CCOCC1", "%", 102],
  ["O=C(c1cnc2n(c1=O)CCS2)N(C1CCCCC1)C1CCCCC1", "%", 102],
  ["Cc1ccc(-n2c3c(cc(C(=O)NCCCN4CCOCC4)c2=O)C(=O)CC(C)(C)C3)cc1", "%", 85],
  ["CC1CCN(C(=O)CSc2nc3c(cnn3-c3ccccc3)c(=O)[nH]2)CC1", "%", 72],
  ["CCOc1ccc(NC(=O)CCN2CCN(c3ccccc3)CC2)cc1", "%", 82.5],
  ["CCN(CC)c1ccc(NC(=O)c2nc3nc(C)cc(C(F)F)n3n2)cc1", "%", 84.4],
  ["COc1ccc(Nc2ncnc3c2cnn3-c2ccccc2)cc1OC", "%", 42.7],
  ["O=C(c1cnc2n(c1=O)CCS2)N1CCc2ccccc21", "%", 101],
  ["O=C(Nc1cnn(Cc2ccc(Cl)cc2Cl)c1)c1noc2c1CCCC2", "%", 88.2],
  ["COC(=O)C1(C(F)(F)F)N=C2Sc3ccccc3N2C(N2CCOCC2)=N1 (stereo not drawn)", "%", 92.5],
  ["CC(C)(O)C#Cc1ccc(C(=O)N2CCN(C(=O)c3ccco3)CC2)cc1", "%", 96.9],
  ["COc1ccc2c(c1OC)C(=O)OC2CC(=O)c1ccc(O)cc1 (stereo not drawn)", "%", 87.3],
  ["Cc1ccc(C)c(NC(=O)C2CCC(C)(C(=O)O)C2(C)C)c1 (stereo not drawn)", "%", 97.8],
  ["Cc1onc(-c2ccccc2)c1C(=O)NCc1cccnc1", "%", 99.4],
  ["CCCSCCCNC(=O)Cn1cc2c(n1)CCC(C)C2 (stereo not drawn)", "%", 98.8],
  ["O=C(c1ccc(NS(=O)(=O)c2cccs2)cc1)N1CCCCC1", "%", 89.9]
]}
